The measurements presented in this section are drawn from ChEMBL document CHEMBL1146025.

# Species on record: Rattus norvegicus
# assay-details: Spasmolytic activity in Wistar rat ileum
# Type: functional
Give Emax for every item shown.
Express the result in % but write the number alone.

State the recorded Emax for this entry: c1ccc2[nH]c(-c3ccc4c(c3)OCO4)nc2c1
59

State the recorded Emax for this entry: c1ccc2[nH]c(-c3ccncc3)nc2c1
50

State the recorded Emax for this entry: Oc1ccc(-c2nc3ccccc3[nH]2)cc1
61.2

State the recorded Emax for this entry: c1ccc(COc2ccccc2-c2nc3ccccc3[nH]2)cc1
51.4
